# TARGET OR TEST SYSTEM: T1, Activin A (human, UniProt P08476 311-426)
# T1 construct: Homodimer of two βA subunits; bought from R&D Systems (#338-AC); also called inhibin-βA dimer; human Activin A
# T1 sequence: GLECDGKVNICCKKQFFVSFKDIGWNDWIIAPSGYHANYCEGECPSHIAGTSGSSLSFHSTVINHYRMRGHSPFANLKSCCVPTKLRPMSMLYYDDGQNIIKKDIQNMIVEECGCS
# PROTOCOL TEXT: SPR, captured mAb, 37C
EXPERIMENTAL READOUT: Kd (pM)
Express your answer in pM, writing the number without its unit.

Worked cases, Kd given:
BINDER	UNITS TEXT	Kd
H4H10426P (antibody, human IgG4, V domains shown) VH: EVQLVESGGNLVQSGRSLRLSCTASGFAFDDFAMHWVRQVPGKGLEWVSGISWNSDTIGYADSVKGRFTISRDNAQNSLFLQMDSLRAEDTALYYCVKDMVRGLIGYYYYGMDVWGQGTTVTVSS VL: EIVLTQSPAILSLSPGERAILSCRASQSIYTYLSWYQQTPGRAPRLLIYETSSRATGIPARFIGSGSGTDFTLTISSLEPEDFAFYYCQHRSDWPPTFGQGTKLEIK	pM	123
H4H10424P (antibody, human IgG4, V domains shown) VH: QVQLVESGGGVVQPGRSLRLSCAASGFTFSSYGMHWVRQAPGKGLEWVAVIWYDGSNKYNADSVKGRFTISRDNSKNTVYLQMNSLRAEDTAVYYCARARNYDILTGYYNLGMDVWGQGTTVTVSS VL: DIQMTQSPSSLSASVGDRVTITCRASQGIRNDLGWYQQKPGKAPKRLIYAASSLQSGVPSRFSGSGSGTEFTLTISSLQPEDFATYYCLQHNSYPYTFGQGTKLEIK	pM	794

Attention now shifts to the item below.
input: Item H4H10430P (antibody, human IgG4, V domains shown, also called H4H1430P; H4H10430P2) VH: EVQLVESGGGLVQPGRSLRLSCKASGFAFDDFAMHWVRQAPGKGLEWVSGIVWNSGDIGYADSVKGRFTISRDNAKNSLYLQLNSLRTEDTALYFCVKDMVRGLMGFNYYGMDVWGQGTTVTVSS VL: EIVLTQSPATLSLSPGERATLSCRASQTISTYLVWYRQRPGQAPSLLIYDASNRATDIPARFSGSGSGTDFTLTISSLEPEDFAVYYCQQRSNWPITFGQGTRLEIK : provide Kd
output: 3.97
